Items are presented alongside their recorded Corn plant response rating.
Test system: corn
Assay: Test C postemergence
Format: in vivo, Zea mays
Details: 31 g ai/ha, postemergence; visual rating, scale 0 to 100 (0 no effect, 100 complete control), 13 to 15 days
Write no unit; give the number alone.

Consider the worked cases shown below.
Clc1cnc(Oc2ccccc2-n2cc(I)nn2)nc1: 5
FC(F)c1cnn(-c2c(Cl)cccc2Oc2ncc(Cl)cn2)c1: 5
FC(F)c1cnn(-c2c(Br)cccc2Oc2ncc(Cl)cn2)c1: 10
FCc1cccc(Oc2ncc(Cl)cn2)c1-n1cc(I)cn1: 5

Attention now turns to another entry.
Q: Return reported Corn plant response rating; argument: `O=Cc1cccc(Oc2ncc(I)cn2)c1-n1cc(Br)cn1`
A: 0

====

System: kochia
Assay: Test A postemergence
Assay type: in vivo, Kochia scoparia
Settings: 500 g ai/ha, 0 to 100 scale where 0 is no effect and 100 is complete control
Items are presented alongside their recorded Plant response rating, Kochia.
Write no unit; give the number alone.

Clc1cnc(Oc2cccc(Br)c2-n2cc(I)nn2)nc1: 100
N#Cc1cn(-c2c(C#N)cccc2Oc2ncc(Cl)cn2)nn1: 100
N#Cc1cnn(-c2c(Oc3ncc(F)cn3)cccc2C(F)F)c1: 60
COc1ccc(C#N)c(-n2cc(Br)cn2)c1Oc1ncc(Cl)cn1: 10
N#Cc1cnn(-c2c(C#N)cccc2Oc2ncc(Br)cn2)c1: 70

Attention now turns to another entry.
Q: Return reported Plant response rating, Kochia; argument: `FC(F)c1cn(-c2ccccc2Oc2ncc(Cl)cn2)nn1`
A: 100

====

System: wild oat
Experiment: Test C postemergence
Type: in vivo, Avena fatua
Conditions: Avena fatua, post-emergence; Postemergence, 62 g ai/ha; scale 0 to 100 (0 no effect, 100 complete control); read-out: Plant response rating, Oat, Wild
Items are presented alongside their recorded pest or weed control at 62 g/ha.
Please respond with the number in % and leave the unit unwritten.

Q: Return reported pest or weed control at 62 g/ha; argument: `N#Cc1cccc(Oc2ncc(Cl)cn2)c1-n1cc(SC(F)(F)F)cn1`
A: 10

Q: Return reported pest or weed control at 62 g/ha; argument: `Clc1cnn(-c2ccccc2Oc2ncc(Br)cn2)c1`
A: 5

Q: Return reported pest or weed control at 62 g/ha; argument: `N#Cc1cccc(Oc2ncc(Cl)cn2)c1-n1cc(Br)cn1`
A: 5

Q: Return reported pest or weed control at 62 g/ha; argument: `N#Cc1cccc(Oc2ncc(F)cn2)c1-n1cc(C(F)(F)F)cn1`
A: 15

====

Test system: giant foxtail
Assay: Test A postemergence
Assay type: in vivo, Setaria faberii
Details: 500 g ai/ha, 0 to 100 scale where 0 is no effect and 100 is complete control
Items are presented alongside their recorded Plant response rating, Foxtail, Giant.
Write no unit; give the number alone.

Clc1cnc(Oc2cccc(Br)c2-n2cc(Cl)cn2)nc1 [Compound 221]: 90
COC(=O)c1cccc(Oc2ncc(Cl)cn2)c1-n1cc(Br)cn1 [Compound 211]: 60
Cc1cnn(-c2c(C#N)cccc2Oc2ncc(Cl)cn2)c1 [Compound 95]: 80
N#Cc1cnn(-c2c(C#N)cccc2Oc2ncc(Cl)cn2)c1 [Compound 200]: 90
N#Cc1cccc(Oc2ncc(Cl)cn2)c1-n1cc(Cl)cn1 [Compound 72]: 100
Fc1cnc(Oc2cccc(C(F)F)c2-n2cc(Cl)cn2)nc1 [Compound 94]: 90
N#Cc1cccc(Oc2ncc(C(F)(F)F)cn2)c1-n1cc(Br)cn1 [Compound 113]: 60
Cc1cnc(Oc2cccc(C#N)c2-n2cc(Br)cn2)nc1 [Compound 76]: 90

Attention now turns to another entry.
Q: Return reported Plant response rating, Foxtail, Giant; argument: Clc1cnc(Oc2cccc(Br)c2-n2cc(I)nn2)nc1 [Compound 117]
A: 90
